Quick list: koff per entry.
Target: T1, human CD33 extracellular domain (human, UniProt P20138 18-259)
T1 construct: soluble monomeric ECD; also called human CD33 ECD; hCD33
Test: SPR, Fab captured, 37C;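 further: Anti-CD33 Fabs captured on anti-Fab chip, soluble monomeric CD33 or its domains flowed over at several concentrations, double-referenced data fitted 1:1, Kd taken as koff/kon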
Number only, in s⁻¹; omit the unit.

Observe how each entry below is paired with its result.
binder | parameter | units.symbol | quantitative.readout
ADI-11812 Fab (Fab, V domains shown, Fab fragment; also called Ab24) VH: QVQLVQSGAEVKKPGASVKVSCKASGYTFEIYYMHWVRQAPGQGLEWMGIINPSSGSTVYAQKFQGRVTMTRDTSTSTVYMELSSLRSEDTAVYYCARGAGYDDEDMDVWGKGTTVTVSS VL: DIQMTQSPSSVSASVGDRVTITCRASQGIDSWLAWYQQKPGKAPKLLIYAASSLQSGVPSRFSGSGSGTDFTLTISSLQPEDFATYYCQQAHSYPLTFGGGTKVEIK | koff | s⁻¹ | 0.000486
ADI-11776 Fab (Fab, V domains shown, Fab fragment; also called Ab3; H76) VH: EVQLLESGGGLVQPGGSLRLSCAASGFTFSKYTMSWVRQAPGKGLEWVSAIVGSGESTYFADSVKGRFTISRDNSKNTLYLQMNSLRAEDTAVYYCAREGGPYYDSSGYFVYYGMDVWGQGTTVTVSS VL: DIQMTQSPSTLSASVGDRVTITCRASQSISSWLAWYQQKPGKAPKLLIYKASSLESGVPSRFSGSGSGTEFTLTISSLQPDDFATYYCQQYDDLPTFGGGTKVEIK | koff | s⁻¹ | 0.00124

Kindly consider the entry below.
Req: Look at this binder and give its reported koff. ADI-11839 Fab (Fab, V domains shown, Fab fragment; also called Ab28) VH: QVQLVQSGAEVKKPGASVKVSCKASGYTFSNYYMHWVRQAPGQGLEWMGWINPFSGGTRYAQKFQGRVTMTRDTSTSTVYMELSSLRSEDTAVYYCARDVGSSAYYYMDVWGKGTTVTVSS VL: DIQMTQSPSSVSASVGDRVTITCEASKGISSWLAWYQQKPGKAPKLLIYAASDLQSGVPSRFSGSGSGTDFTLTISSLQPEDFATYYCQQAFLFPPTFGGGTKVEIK
Resp: 0.0162
